system name: C3b (component obtained after hydrolysis of complement component 3, C3) (UniProt P01024)
measurement notes: biolayer interferometry
Measured Kd values are reported for all entries that follow.
endpoint label: Kd (nM)

[[record]]
binder = "B10 Nanofitin with N-terminal peptide (10-mers) tag and C-terminal 30 kDa protein (designed binder, not shown: large carriers; small tags and cut ends) MVKVKFDATGEEKEVDTSKISAVYRTGKDVLFSYDDNGKIGWGYVSEKDAPKELLDLLARAERE"
assay_value = 7.3

[[record]]
binder = "B10 Nanofitin with N-terminal peptide (10-mers) tag (designed binder, not shown: small tags and cut ends) MVKVKFDATGEEKEVDTSKISAVYRTGKDVLFSYDDNGKIGWGYVSEKDAPKELLDLLARAERE"
assay_value = 8.2

[[record]]
binder = "B10 Nanofitin with N-terminal 48 kDa protein (designed binder, not shown: small tags and cut ends) MVKVKFDATGEEKEVDTSKISAVYRTGKDVLFSYDDNGKIGWGYVSEKDAPKELLDLLARAERE"
assay_value = 6.7

[[record]]
binder = "B10 Nanofitin with N-terminal peptide (10-mers) tag and C-terminal Nanofitin (designed binder, not shown: small tags and cut ends) MVKVKFDATGEEKEVDTSKISAVYRTGKDVLFSYDDNGKIGWGYVSEKDAPKELLDLLARAERE"
assay_value = 11.5

[[record]]
binder = "B10 Nanofitin with N-terminal peptide (10-mers) tag and C-terminal peptide (15-mers) tag (designed binder, not shown: small tags and cut ends) MVKVKFDATGEEKEVDTSKISAVYRTGKDVLFSYDDNGKIGWGYVSEKDAPKELLDLLARAERE"
assay_value = 2.5

